Test system: diamondback moth (Plutella xylostella)
Test: Insecticidal effect on diamondback moth (Test Example 1)
Type: in vivo
Conditions: diamondback moth; mortality judged by criterion of Test Example 1
Quantity Kind: Insecticidal effect, Test Example 1

Please review the following examples before continuing.
compound=Cc1cc(C(F)(F)C(F)(F)F)ccc1NC(=O)c1cccc(I)c1C(=O)NCc1ccccc1 result="A (100)"
compound=Cc1cc(C(F)(F)C(F)(F)F)ccc1NC(=O)c1cccc(I)c1C(=O)NC1CC1 result="A (100)"
compound=Cc1cc(C(F)(C(F)(F)F)C(F)(F)F)ccc1NC(=O)c1cccc(Cl)c1C(=O)NC(C)(C)C result="A (100)"
compound="CC(C)NC(=O)c1c(C(=O)Nc2ccc3c(c2)OC(F)C(F)(F)O3)cccc1[N+](=O)[O-] (stereo not shown)" result="A (100)"
compound="CCC(CO)NC(=O)c1ccccc1C(=O)Nc1ccc(C(F)(F)C(F)(F)F)cc1C (stereo not shown)" result="A (100)"

Insecticidal effect, Test Example 1 recorded for this compound, CC(C)NC(=O)c1c(I)cccc1C(=O)Nc1ccc2c(c1)OC(F)(F)C2(F)F , is A (100)

What the record says about CC(C)NC(=O)c1c(Cl)cccc1C(=O)Nc1ccc(C(O)(C(F)(F)F)C(F)(F)F)cc1 : Insecticidal effect, Test Example 1 is A (100)

# compound Cc1cc(C(F)(F)C(F)(F)F)ccc1NC(=O)c1c(Cl)cccc1C(=O)NC(C)c1ccccc1Cl (stereo not shown) ; its Insecticidal effect, Test Example 1 = A (100)

The compound Cc1ccccc1CNC(=O)c1c(Cl)cccc1C(=O)Nc1ccc(C(F)(F)C(F)(F)F)cc1C showed Insecticidal effect, Test Example 1 equal to A (100)

So for Cc1cc(OC(F)(F)C(F)F)ccc1NC(=O)c1cccc(I)c1C(=O)NC(C)(C)C , the logged Insecticidal effect, Test Example 1 turned out to be A (100)

compound CC(C)(C)NC(=O)c1c(I)cccc1C(=O)Nc1ccc2c(c1)OC(F)(F)C(F)O2 (stereo not shown) , Insecticidal effect, Test Example 1 observed: A (100)

Insecticidal effect, Test Example 1 reading for Cc1cc(C(F)(F)C(F)(F)F)ccc1NC(=O)c1ccccc1C(=O)NCC(O)Cc1ccccc1 (stereo not shown) : A (100)

// field: Insecticidal effect, Test Example 1; key: CC(C)NC(=O)c1c(I)cccc1C(=O)Nc1ccc(I)cc1C(C)C ; value = A (100)

// field: Insecticidal effect, Test Example 1; key: CC(C)(C)NC(=O)c1c(Cl)cccc1C(=O)Nc1ccc(OC(F)(F)F)cc1Cl ; value = A (100)

The compound identified as CCN(CC)C(=O)c1c(C(=O)Nc2ccc(C(F)(F)C(F)(F)F)cc2C)ccc(F)c1Cl registered its Insecticidal effect, Test Example 1 at A (100)

Notebook: CC(C)NC(=O)c1c(C(=O)Nc2ccc([S+]([O-])C(F)(F)F)cc2)cccc1[N+](=O)[O-] (stereo not shown) , Insecticidal effect, Test Example 1 read as A (100)

###

System: rice leafroller (Cnaphalocrocis medinalis)
Experiment: Insecticidal effect on rice leafroller (Test Example 3)
Format: in vivo
Details: 500 ppm; rice lamina immersed; third-instar larvae of rice leafroller; four days after inoculation; 25° C., humidity 70%
Quantity Kind: Insecticidal effect, Test Example 3

Before answering, review these 4 worked examples.
compound="CC(C)NC(=O)c1cccc(I)c1C(=O)Nc1ccc(OC(F)(F)C(F)OC(F)(F)C(F)(F)C(F)(F)F)cc1 (stereo not drawn)" study_system="rice leafroller (Cnaphalocrocis medinalis)" quantity_kind="Insecticidal effect, Test Example 3" result="A (100)"
compound=CC(C)NC(=O)c1cccc(I)c1C(=O)Nc1ccc(SCC(F)(F)F)cc1 study_system="rice leafroller (Cnaphalocrocis medinalis)" quantity_kind="Insecticidal effect, Test Example 3" result="D (79-50)"
compound=CCOP(=O)(OCC)c1ccc(NC(=O)c2ccccc2C(=O)NC(C)C)c(C)c1 study_system="rice leafroller (Cnaphalocrocis medinalis)" quantity_kind="Insecticidal effect, Test Example 3" result="A (100)"
compound=Cc1c(NC(=O)c2c(I)cccc2C(=O)NC(C)C)cccc1C(F)(F)F study_system="rice leafroller (Cnaphalocrocis medinalis)" quantity_kind="Insecticidal effect, Test Example 3" result="A (100)"

In plain terms, CC(C)NC(=O)c1c(Br)cccc1C(=O)Nc1ccc2c(c1)OCO2 has a documented Insecticidal effect, Test Example 3 of A (100)

Reported Insecticidal effect, Test Example 3 for Cc1cc(Cl)ccc1NC(=O)c1cccc(I)c1C(=O)NC(C)C was A (100)

Entry CC(C)NC(=O)c1ccccc1C(=O)Nc1ccc(Cl)cc1Cl , Insecticidal effect, Test Example 3 reported as A (100)

// Insecticidal effect, Test Example 3 value for Cc1cc(Sc2ccc(Cl)cc2)ccc1NC(=O)c1ccccc1C(=O)NC(C)C : A (100)

###

System: rice leafroller (Cnaphalocrocis medinalis)
Test: Insecticidal effect on rice leafroller (Test Example 3)
Assay type: in vivo
Settings: 500 ppm, rice lamina dip, third-instar larvae, four days after inoculation, 25° C., humidity 70%
Quantity Kind: Insecticidal effect on rice leafroller (Test Example 3), judged grade

Examples with their reported Insecticidal effect on rice leafroller (Test Example 3), judged grade follow.
compound=Cc1cc(Sc2ccc(Cl)cc2)ccc1NC(=O)c1c(F)cccc1C(=O)NC(C)C result="A (100)"
compound=Cc1cc(Oc2ncc(C(F)(F)F)cc2Cl)ccc1NC(=O)c1cccc(F)c1C(=O)NC(C)C result="A (100)"
compound=COc1ccccc1NC(=O)c1cccc([N+](=O)[O-])c1C(=O)NC(C)C result="D (79-50)"
compound=CC(C)CNC(=O)c1ccccc1C(=O)Nc1ccc(C(F)(F)F)cc1 result="D (79-50)"
compound="Cc1cc(OC(F)(F)C(F)(Br)C(F)(F)F)ccc1NC(=O)c1cccc([N+](=O)[O-])c1C(=O)NC(C)C (centres unmarked)" result="A (100)"
compound=COc1cccc(C(=O)NC(C)C)c1C(=O)Nc1ccc(OC(F)(F)F)cc1 result="D (79-50)"
compound=CC(C)NC(=O)c1cccc(F)c1C(=O)Nc1ccc(OC(F)(F)F)cc1Br result="A (100)"

For record COc1ccc(NC(=O)c2cccc([N+](=O)[O-])c2C(=O)NC(C)C)c(C)c1C the listed Insecticidal effect on rice leafroller (Test Example 3), judged grade is A (100)

###

Test system: rice leafroller (Cnaphalocrocis medinalis)
Assay: Insecticidal effect on rice leafroller (Test Example 3)
Format: in vivo
Details: 500 ppm, rice lamina dip, third-instar larvae, four days after inoculation, 25° C., humidity 70%
Quantity Kind: Insecticidal effect on rice leafroller (Test Example 3), judged grade

Worked examples follow.
structure_as_smiles=Cc1cc(OC(F)(F)C(F)F)c(Cl)cc1NC(=O)c1c(I)cccc1C(=O)NC(C)C result="A (100)"
structure_as_smiles=C=CCNC(=O)c1c(C(=O)Nc2ccc(OC(F)F)cc2C)cccc1[N+](=O)[O-] result="C (89-80)"
structure_as_smiles=Cc1cc(OC(F)(F)C(F)F)ccc1NC(=O)c1c(F)cccc1C(=O)NC(C)C result="B (99-90)"
structure_as_smiles=CC(C)NC(=O)c1c(Cl)cccc1C(=O)Nc1ccc(C=C(Cl)C(F)(F)F)cc1 result="D (79-50)"
structure_as_smiles=Cc1cc(OCC(F)(F)C(F)F)ccc1NC(=O)c1cccc([N+](=O)[O-])c1C(=O)NC(C)C result="D (79-50)"
structure_as_smiles=Cc1c(NC(=O)c2c(F)cccc2C(=O)NC(C)C)cccc1OC(F)F result="A (100)"
structure_as_smiles=CC(C)NC(=O)c1c(Cl)cccc1C(=O)Nc1ccc(C(F)(F)C(F)(F)F)cc1 result="A (100)"
structure_as_smiles=Cc1cc(C(F)(F)C(F)(F)F)ccc1NC(=O)c1cccc(Cl)c1C(=O)NC(C)(C)C result="A (100)"

Consider CSc1cccc(C(=O)Nc2ccc(Cl)cc2C)c1C(=O)NC(C)C . Its measured Insecticidal effect on rice leafroller (Test Example 3), judged grade is A (100)

Lab note: Cc1cc(C(F)(F)C(F)(F)C(F)(F)C(F)(F)F)ccc1NC(=O)c1c(F)cccc1C(=O)NC(C)C gave Insecticidal effect on rice leafroller (Test Example 3), judged grade of B (99-90)

Entry Cc1cccc(NC(=O)c2cccc([N+](=O)[O-])c2C(=O)NC(C)C)c1C , Insecticidal effect on rice leafroller (Test Example 3), judged grade reported as B (99-90)

Query CSc1cccc(C(=O)Nc2cccc(Cl)c2C)c1C(=O)NC(C)C yields Insecticidal effect on rice leafroller (Test Example 3), judged grade of A (100)

Short answer for CC(C)NC(=O)c1c(C(=O)Nc2ccc(Cl)c(Cl)c2)cccc1[N+](=O)[O-] : Insecticidal effect on rice leafroller (Test Example 3), judged grade was A (100)

Record COc1cccc(C(=O)NC(C)C)c1C(=O)Nc1cc(Cl)ccc1C . Reported Insecticidal effect on rice leafroller (Test Example 3), judged grade: A (100)

The value of Insecticidal effect on rice leafroller (Test Example 3), judged grade measured for the molecule Cc1cc(Sc2ccc(Cl)cc2)ccc1NC(=O)c1cccc(F)c1C(=O)NC(C)C turned out to be A (100)

Field Insecticidal effect on rice leafroller (Test Example 3), judged grade (entry CC(C)NC(=O)c1cccc(I)c1C(=O)Nc1ccc(C(F)(F)C(F)(F)C(F)(F)F)cc1Cl ) reads B (99-90)

The molecule Cc1cc(OC(F)F)c(Cl)cc1NC(=O)c1c(I)cccc1C(=O)NC(C)C showed Insecticidal effect on rice leafroller (Test Example 3), judged grade equal to C (89-80)
